Where these numbers come from: ChEMBL document CHEMBL1134540

assay: Partition coefficient (logD7.4); details: octanol/water, pH 7.4

# MOLECULE, logD
records = [
    ("COC1=CC(=O)C[C@@H](C)[C@]12Oc1c(Cl)c(OC)cc(OC)c1C2=O [GRISEOFULVIN]", 2.18),
    ("CSc1ncnc2c1ncn2[C@@H]1O[C@H](CO)[C@@H](O)[C@H]1O", 0.09),
    ("CN(C)CCC(c1ccc(Cl)cc1)c1ccccn1 (stereo not given) [CHLORPHENIRAMINE]", 1.41),
    ("COc1ccc2c3c1O[C@H]1[C@@H](O)C=C[C@H]4[C@@H](C2)N(C)CC[C@@]341 [CODEINE]", 0.23),
    ("CCCCNc1ccc(C(=O)OCCN(C)C)cc1 [TETRACAINE]", 2.29),
    ("CCN(CC)CCNC(=O)c1cc(S(C)(=O)=O)ccc1OC [TIAPRIDE]", -0.09),
    ("CC(C)(C)NCC(O)c1cc(O)cc(O)c1 (stereo not given)", -1.35),
    ("NC(=O)N/N=C/c1ccc([N+](=O)[O-])o1 [NITROFURAZONE]", 0.23),
    ("NC(=O)N1c2ccccc2C=Cc2ccccc21 [CARBAMAZEPINE]", 2.19),
    ("Brc1cnc2ccccc2c1", 3.03),
]
